relative binding activity (% of WT) overview
assaySystem: T1, EGFI-Cr1 V40E (human)
T1 construct: not shown: The fused constant region of human immunoglobulin gamma 1 heavy chain (Cr1)
T1 chain: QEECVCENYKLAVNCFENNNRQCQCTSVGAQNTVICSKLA
testMethodNotes: direct ELISA, coated EGFI-Cr1 fusion, 0.1 µg/ml antibody
Description: A direct ELISA was used for testing the reactivity of anti-EpCAM antibodies toward variant EpCAM mutants. […] The optical densities at 450 nm wavelength were measured on an ELISA plate reader.
Give the value, in units of %, as a plain number.

• murine monoclonal antibody 1F10 (antibody, mouse IgG1, V domains shown, Mouse IgG1, lambda 1, from hybridoma; also called m338-1F10.3) VH: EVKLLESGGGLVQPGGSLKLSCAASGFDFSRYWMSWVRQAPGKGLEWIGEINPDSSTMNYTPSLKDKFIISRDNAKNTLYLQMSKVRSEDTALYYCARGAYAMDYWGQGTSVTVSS VL: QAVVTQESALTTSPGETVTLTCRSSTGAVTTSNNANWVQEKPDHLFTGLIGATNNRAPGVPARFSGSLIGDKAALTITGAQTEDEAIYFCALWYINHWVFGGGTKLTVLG = 1

Query: relative binding activity (% of WT) lookup needed for murine monoclonal antibody 12H8 (antibody, mouse IgG2a, V domains shown, Mouse IgG2a, kappa, from hybridoma; also called m342-12H8.3; m12H8) VH: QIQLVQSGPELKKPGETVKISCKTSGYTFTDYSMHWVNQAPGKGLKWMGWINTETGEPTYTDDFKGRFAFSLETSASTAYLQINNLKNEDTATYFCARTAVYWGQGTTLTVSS VL: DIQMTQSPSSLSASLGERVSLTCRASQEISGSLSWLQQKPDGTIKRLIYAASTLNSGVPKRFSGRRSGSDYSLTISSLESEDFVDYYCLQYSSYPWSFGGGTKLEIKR , thanks.
Response: 93
